procedure-summary: Plasma clearance in rat at 10 mg/kg, iv
Format: ADME, organism-based
Parameters: dose 10 mg/kg, route intravenous
result-type: clearance (mL/min/kg)
Note: unit mL/min/kg is implicit; provide only the numeric part.

(Q) Entry CS(=O)(=O)c1ccc([C@@H](C[C@H]2CCC(=O)C2)C(=O)Nc2cnccn2)cc1Cl : reported clearance = ?
(A) 104

---

procedure-summary: Tmax in mouse at 60 mg/kg, po
Assay type: ADME, organism-based
Parameters: dose 60 mg/kg, route oral
protocol-conditions: in vivo
result-type: Tmax
Answer format: value, then unit.

(Q) Entry CS(=O)(=O)c1ccc([C@@H](C[C@H]2CCC(=O)C2)C(=O)Nc2cnccn2)cc1Cl : reported Tmax = ?
(A) 1 h
